# systemTested: Phosphatidylinositol 4,5-bisphosphate 3-kinase catalytic subunit delta isoform (Homo sapiens, UniProt O00329)
# Sequence (O00329 whole entry, canonical isoform): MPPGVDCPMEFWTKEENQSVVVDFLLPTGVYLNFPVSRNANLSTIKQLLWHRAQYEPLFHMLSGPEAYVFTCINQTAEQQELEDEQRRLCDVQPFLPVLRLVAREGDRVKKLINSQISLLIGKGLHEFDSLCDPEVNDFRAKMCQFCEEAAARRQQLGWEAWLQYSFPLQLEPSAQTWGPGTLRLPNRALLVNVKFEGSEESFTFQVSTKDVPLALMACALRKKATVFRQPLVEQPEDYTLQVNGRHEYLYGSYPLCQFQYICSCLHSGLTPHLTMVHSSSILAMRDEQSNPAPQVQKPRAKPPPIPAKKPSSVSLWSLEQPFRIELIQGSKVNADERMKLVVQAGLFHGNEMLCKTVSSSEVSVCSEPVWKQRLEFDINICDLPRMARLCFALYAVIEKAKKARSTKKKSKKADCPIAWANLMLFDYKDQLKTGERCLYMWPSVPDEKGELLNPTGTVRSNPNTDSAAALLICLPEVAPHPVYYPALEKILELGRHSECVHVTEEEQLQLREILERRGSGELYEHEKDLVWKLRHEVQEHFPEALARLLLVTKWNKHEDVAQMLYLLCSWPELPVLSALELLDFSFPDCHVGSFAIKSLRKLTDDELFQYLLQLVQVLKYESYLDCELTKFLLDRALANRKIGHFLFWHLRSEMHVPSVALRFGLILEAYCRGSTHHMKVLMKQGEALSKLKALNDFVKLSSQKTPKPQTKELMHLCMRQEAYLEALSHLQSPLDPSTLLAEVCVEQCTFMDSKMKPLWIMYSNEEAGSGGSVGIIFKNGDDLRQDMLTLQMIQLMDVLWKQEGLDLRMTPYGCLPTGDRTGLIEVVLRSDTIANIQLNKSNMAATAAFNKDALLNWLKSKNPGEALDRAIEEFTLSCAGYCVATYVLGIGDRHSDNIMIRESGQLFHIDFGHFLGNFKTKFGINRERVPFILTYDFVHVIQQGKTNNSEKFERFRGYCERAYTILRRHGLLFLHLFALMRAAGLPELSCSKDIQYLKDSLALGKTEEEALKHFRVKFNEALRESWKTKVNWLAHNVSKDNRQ
# experimentalDetails: Inhibition of PI3Kdelta (unknown origin)
Overview of recorded pIC50 for various molecules
# pIC50: negative log10 of molar concentration; output just the value

{"smilesStructure": "O=S(=O)(Nc1cc(-c2ccc3nncc(N4CCCCC4)c3c2)cnc1Cl)c1ccccc1", "recordedResult": 9.17}
{"smilesStructure": "O=S(=O)(Nc1cc(-c2ccc3nncc(Nc4ccccc4)c3c2)cnc1Cl)c1ccccc1", "recordedResult": 8.35}
{"smilesStructure": "COc1cnnc2ccc(-c3cnc(Cl)c(NS(=O)(=O)c4ccccc4)c3)cc12", "recordedResult": 8.96}

Item under review: CCOc1cnnc2ccc(-c3cnc(Cl)c(NS(=O)(=O)c4ccccc4)c3)cc12 . Reported pIC50?
9.40

Report pIC50 for O=S(=O)(Nc1cc(-c2ccc3nncc(-n4ccnc4)c3c2)cnc1Cl)c1ccccc1 please.
9.68

Tell me the measured pIC50 of O=S(=O)(Nc1cc(-c2ccc3nncc(O)c3c2)cnc1Cl)c1ccccc1 , please.
6.08

Field request: pIC50 | item: O=S(=O)(Nc1cc(-c2ccc3nnccc3c2)cnc1Cl)c1ccccc1
7.71

Can you look up the measured pIC50 of CC1CCN(c2cnnc3ccc(-c4cnc(Cl)c(NS(=O)(=O)c5ccccc5)c4)cc23)CC1 for me?
9.49

Fill blank: measured pIC50 of the molecule COc1ncc(-c2ccc3nncc(Nc4ccc(NC(C)=O)cc4)c3c2)cc1NS(=O)(=O)c1ccccc1 is ____.
8.07
